Origin of measurements: PubChem BioAssay (NCI)

Tested on: RPMI-8226 leukemia
protocol-summary: NCI-60 one-dose screen, 48 h
applied-conditions: 10 µM unless noted
The panel holds about 83,000 compounds, 20% with a hit somewhere; the sample as a whole holds those more often. The source made the active and inactive calls. Rule for the calls: active = growth percent below 10; inactive = the rest.
Could you please pick one outcome from this set? label 1 (active), label 0 (inactive)

Known results for compounds:
[
  {
    "compound": "CC1(C)CC2(CC(C)(C)c3cc(O)c(O)cc32)c2cc(O)c(O)cc21",
    "experimental-target": "RPMI-8226 leukemia",
    "class-name": "label 0"
  },
  {
    "compound": "NCCc1cc(O)c(O)cc1O",
    "experimental-target": "RPMI-8226 leukemia",
    "class-name": "label 0"
  },
  {
    "compound": "COc1cccc2c1C(=O)c1c(O)c3c(c(O)c1C2=O)CC(O)(/C(C)=N/NC(=O)CCC(=O)N/N=C(\\C)C1(O)Cc2c(O)c4c(c(O)c2C(OC2CC(N)C(O)C(C)O2)C1)C(=O)c1c(OC)cccc1C4=O)CC3OC1CC(N)C(O)C(C)O1 (stereo not drawn)",
    "experimental-target": "RPMI-8226 leukemia",
    "class-name": "label 1"
  },
  {
    "compound": "C/C1=C/C(=O)O[C@@H]2C[C@@H](CC[C@H](C)/C=C\\C=C\\CC1)O[C@@](OCCc1ccccc1)([C@@H]1CSC(=O)N1)C2",
    "experimental-target": "RPMI-8226 leukemia",
    "class-name": "label 0"
  },
  {
    "compound": "COc1cc[c]([Hg][Cl])cc1",
    "experimental-target": "RPMI-8226 leukemia",
    "class-name": "label 0"
  },
  {
    "compound": "C[C@]12CCc3sc(-c4ccc(Cl)cc4)nc3C1=CC[C@@H]1[C@@H]2CC[C@]2(C)C(=O)CC[C@@H]12",
    "experimental-target": "RPMI-8226 leukemia",
    "class-name": "label 1"
  },
  {
    "compound": "CC12CCC(=O)C=C1CCC1C2CCC2(C)C(C(=O)COC(=O)Cc3ccc(N(CCCl)CCCl)cc3)CCC12 (stereo not drawn)",
    "experimental-target": "RPMI-8226 leukemia",
    "class-name": "label 0"
  }
]

Name the outcome recorded for Oc1ccc(O)c2c1C1(Cl)C(Cl)=C(Cl)C2(Cl)C1(Cl)Cl in the assay.
label 0

###

The following compounds are listed with their measured growth values.
System: HL-60(TB) leukemia
protocol-summary: NCI-60 one-dose screen, 48 h (100 = growth as untreated, 0 = no growth, -100 = all killed)
applied-conditions: 10 µM unless noted
This is part of a sample that, as a whole, favours compounds with a hit. Of some 83,000 tested, about 20% had one in any assay. Activity calls are given as the source filed them. The calls were made as follows: active = growth percent below 10; inactive = the rest.

Below are worked cases with known answers.
[
  {
    "compound": "O=C(Nc1cccc(-n2cc(-c3ccncc3)c(-c3ccc(O)c(Cl)c3)n2)c1)c1ccc(Cl)c(Cl)c1",
    "measure-name": "growth",
    "result": "33.9% (inactive)"
  },
  {
    "compound": "CN(C)c1cccc2c(S(=O)(=O)N[C@H]3CC[C@H]4[C@@H]5CCc6cc(O)ccc6[C@H]5CC[C@]34C)cccc12",
    "measure-name": "growth",
    "result": "-26.7% (active)"
  },
  {
    "compound": "O=S(=O)(Nc1ccc(Cl)c(F)c1)c1ccc(-c2cnc(C3CC3)o2)cc1",
    "measure-name": "growth",
    "result": "0.942% (active)"
  },
  {
    "compound": "Cc1ccc(C2SCC(=O)N2Cc2ccccc2)cc1 (stereo unspecified)",
    "measure-name": "growth",
    "result": "96.1% (inactive)"
  },
  {
    "compound": "COc1ccc2c(c1)c(=O)oc1c(C)c(OCC(C)=O)ccc12",
    "measure-name": "growth",
    "result": "110% (inactive)"
  }
]

Given item C=C1c2c(C)nn(-c3ccc(N)cc3)c2N(C)C23CC1C1(C)c4c(C)nn(-c5ccc(N)cc5)c4N(C)C(C)(CC12)C3 (stereo unspecified) , the value recorded as its growth is 55.7% (inactive)

Given item C[N+](C)(C)C(=O)c1ccccc1 , the value recorded as its growth is 125% (inactive)

Given item O=C(CCc1ccco1)NC1CCN(CC2(c3ccc(Cl)cc3)CCC2)CC1 , the value recorded as its growth is -42.7% (active)

###

The following molecules are listed with their measured growth values.
System: UACC-257 melanoma
protocol-summary: NCI-60 one-dose screen, 48 h (100 = growth as untreated, 0 = no growth, -100 = all killed)
applied-conditions: 10 µM unless noted
This is part of a sample that, as a whole, favours compounds with a hit. Of some 83,000 tested, about 20% had one in any assay.
The reply should be a number in %, with the unit left off.

Given item CCC(/C=C(C)/C=C/C(=O)c1c(O)c(-c2ccc(O)cc2)c[nH]c1=O)CO (stereo not drawn) , the value recorded as its growth is 92.4

###

Test system: HL-60(TB) leukemia
protocol-summary: NCI-60 one-dose screen, 48 h (100 = growth as untreated, 0 = no growth, -100 = all killed)
applied-conditions: 10 µM unless noted
The panel holds about 83,000 compounds, 20% with a hit somewhere; the sample as a whole holds those more often. Activity calls are given as the source filed them. The calls were made as follows: active = growth percent below 10; inactive = the rest.
The following compounds are listed with their measured growth values.

Below are worked cases with known answers.
[
  {
    "compound": "CCNCCNc1cc(-c2ccc(C(F)(F)F)cc2)c(C#N)c2nc3cc(Cl)c(Cl)cc3n12",
    "experimental-target": "HL-60(TB) leukemia",
    "growth": "-56.9% (active)"
  },
  {
    "compound": "CCSc1nnc(NC(=O)Cc2ccc(Cl)cc2)s1",
    "experimental-target": "HL-60(TB) leukemia",
    "growth": "96.8% (inactive)"
  },
  {
    "compound": "Nc1ncnc2c1c(-c1ccc(Oc3ccccc3)cc1)nn2CC1SSCC1O (centres undefined)",
    "experimental-target": "HL-60(TB) leukemia",
    "growth": "-25.9% (active)"
  },
  {
    "compound": "CCCCN1CCN(c2ccc3nc(-c4ccc5nc(-c6ccc(C(F)(F)F)cc6)[nH]c5c4)[nH]c3c2)CC1",
    "experimental-target": "HL-60(TB) leukemia",
    "growth": "-58.7% (active)"
  },
  {
    "compound": "CC(C)OCC(CCl)OC(=O)Nc1ccccc1 (centres undefined)",
    "experimental-target": "HL-60(TB) leukemia",
    "growth": "97.3% (inactive)"
  }
]

Continue with the compound presented below.
Given item N=C(N)c1nn(C2OC(CO)C(O)C2O)c2nc[nH]c(=O)c12 (centres undefined) , the value recorded as its growth is -25.2% (active)

###

Test system: HL-60(TB) leukemia
protocol-summary: NCI-60 one-dose screen, 48 h (100 = growth as untreated, 0 = no growth, -100 = all killed)
applied-conditions: 10 µM unless noted
Experimental: Growth inhibition of the HL-60(TB) human tumor cell line is measured as a screen for anti-cancer activity. Cells are grown in 96 well plates and exposed to the test compound for 48 hours. Compounds are tested at a single concentration, which is 10^-5 M for most compounds. The reported endpoint is percent growth (GI% or GIPRCNT), where numbers from 0 - 100% represent growth inhibition, and numbers from -100% - 0 represent cell death. For example, a value of 40 represents 60% growth inhibition. […]
This is part of a sample that, as a whole, favours compounds with a hit. Of some 83,000 tested, about 20% had one in any assay.
The following compounds are listed with their measured growth values.
The reply should be a number in %, with the unit left off.

Noted growth for COc1ccc(/C=C(\C#N)n2nc3cccc(F)c3n2)cc1 , tested on HL-60(TB) leukemia: 82

Noted growth for O=C(/C=C/c1cc(CN2CCOCC2)c(O)c2ncccc12)c1cc(CN2CCOCC2)c(O)c2ncccc12 , tested on HL-60(TB) leukemia: 22

Noted growth for FC(F)(F)Oc1cccc(-c2cc(NCCCCCCNc3cc(-c4cccc(OC(F)(F)F)c4)nc4ccc(N5CCCC5)cc34)c3cc(N4CCCC4)ccc3n2)c1 , tested on HL-60(TB) leukemia: 21.7

Noted growth for O=C(CSc1nc2ccccc2[nH]1)Nc1ccc(-c2nc3ccccc3s2)c(Cl)c1 , tested on HL-60(TB) leukemia: 62

Noted growth for N#Cc1c(-c2ccc(Cl)cc2)nc(N/N=C/c2cccc(Br)c2)nc1N1CCOCC1 , tested on HL-60(TB) leukemia: 40.6

###

Test system: HL-60(TB) leukemia
protocol-summary: NCI-60 one-dose screen, 48 h
applied-conditions: 10 µM unless noted
Compounds without any hit were thinned out: in the full panel of roughly 83,000, 20% have a hit. Active and inactive are the calls of the source. How the source made its calls: active means growth percent below 10; inactive means the rest.
Could you please pick one outcome from this set? TRUE (active), FALSE (inactive)

Name the outcome recorded for CN1CCN(Cc2ccc(NC(=O)c3cncc(C#Cc4cnc(N)c5cccnc45)c3)cc2C(F)(F)F)CC1 in the assay.
TRUE

Name the outcome recorded for CN1C/C=C\CCOc2cccc(c2)-c2ccnc(n2)Nc2cccc(c2)C1 in the assay.
TRUE

Name the outcome recorded for CC[C@@H]1C(=O)N(C)c2cnc(Nc3ccc(C(=O)NC4CCN(C)CC4)cc3OC)nc2N1C1CCCC1 in the assay.
TRUE

Name the outcome recorded for CNCCCNc1ccnc2cc(Cl)ccc12 in the assay.
TRUE

Name the outcome recorded for CC(=O)Cc1nsc(NC(=O)c2ccoc2COc2ccccc2)n1 in the assay.
FALSE

Name the outcome recorded for O=C(O)C(Cc1ccccc1)C(=O)O in the assay.
FALSE
